# ASSAYED_SYSTEM: human TGFβR1 (Homo sapiens (Human), UniProt P36897)
# Sequence (P36897 34-503): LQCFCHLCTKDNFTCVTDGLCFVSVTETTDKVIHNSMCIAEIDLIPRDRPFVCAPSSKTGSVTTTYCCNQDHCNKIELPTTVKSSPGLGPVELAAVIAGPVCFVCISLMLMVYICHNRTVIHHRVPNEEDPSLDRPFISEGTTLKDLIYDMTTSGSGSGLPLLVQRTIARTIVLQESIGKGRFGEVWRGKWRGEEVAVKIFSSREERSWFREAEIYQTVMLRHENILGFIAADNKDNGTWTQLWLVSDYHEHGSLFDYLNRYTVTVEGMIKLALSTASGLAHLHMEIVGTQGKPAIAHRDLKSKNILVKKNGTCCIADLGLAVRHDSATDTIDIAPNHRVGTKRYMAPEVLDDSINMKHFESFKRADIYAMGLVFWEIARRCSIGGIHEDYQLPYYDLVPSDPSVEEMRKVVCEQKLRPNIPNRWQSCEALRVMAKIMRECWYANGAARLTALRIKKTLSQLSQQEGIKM
MEASUREMENT_KIND: pIC50
Entry type: numeric. Quantity: pIC50, the -log10 of concentration in molar units.

[ask] Under human TGFβR1 (Homo sapiens (Human), UniProt P36897), report pIC50 for Cc1cccc(-c2nc3n(c2-c2ccc4ncn(C)c4c2)CC2CC32)n1 (stereo not shown) [Compound 16]
[reply] 8.31

[ask] Under human TGFβR1 (Homo sapiens (Human), UniProt P36897), report pIC50 for Cc1cccc(-c2nc3n(c2-c2ccc4ncoc4c2)CC2CC32)n1 (stereo not shown) [Compound 20]
[reply] 7.42

[ask] Under human TGFβR1 (Homo sapiens (Human), UniProt P36897), report pIC50 for Cc1cccc(-c2nc3n(c2-c2ccc4nccn4c2)CC2CC32)n1 (stereo not shown) [Compound 19]
[reply] 7.30

[ask] Under human TGFβR1 (Homo sapiens (Human), UniProt P36897), report pIC50 for Cc1cccc(-c2nc3n(c2-c2ccn4nccc4c2)CC2CC32)n1 (stereo not shown) [Compound 36]
[reply] 7.89
